Consider the following compounds; for each one, report its pKd.
# target system: BRD2-BD1 (Homo sapiens (Human))
# Sequence (P25440 74-194): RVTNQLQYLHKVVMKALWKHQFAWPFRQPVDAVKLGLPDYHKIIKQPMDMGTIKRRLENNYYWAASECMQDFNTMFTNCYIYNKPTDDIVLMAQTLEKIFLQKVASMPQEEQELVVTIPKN
# assay info: isothermal titration calorimetry analysis of binding
# recorded conditions: ITC, BRD2-BD1, average of 3 experiments; read-out: average Kd
Give bare numbers, as −log10 of the molar value.

Sample records with pKd:
CC(=O)N1c2ccc(-c3ccsc3)cc2[C@H](NC(=O)OC(C)C)C[C@@H]1C :: 7.14
CC(=O)N1c2ccc(-c3cc[nH]c3)cc2[C@H](NC(=O)OC(C)C)C[C@@H]1C :: 7.04

For each entry beneath this line, provide reported pKd.
1. CC(=O)N1c2ccc(-c3cccs3)cc2[C@H](NC(=O)OC(C)C)C[C@@H]1C
2. CC(=O)N1c2ccc(-c3ccoc3)cc2[C@H](NC(=O)OC(C)C)C[C@@H]1C
3. CC(=O)N1c2ccc(-c3ccc[nH]3)cc2[C@H](NC(=O)OC(C)C)C[C@@H]1C

Outgoing:
1: 7.21; 2: 6.79; 3: 6.88

* * *

Consider the following compounds; for each one, report its [2(1)/2(2)].
# target system: BRD2-BD2 (Homo sapiens (Human), UniProt P25440)
# Sequence (P25440 344-453): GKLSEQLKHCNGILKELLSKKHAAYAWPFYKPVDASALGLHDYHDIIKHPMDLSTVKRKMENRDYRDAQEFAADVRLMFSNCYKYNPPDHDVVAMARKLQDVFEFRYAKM
# assay info: competitive TR-FRET assay, BET-BD with acetylated peptide ligand
# Assay type: binding
# recorded conditions: Table 6, ratio of EC50
Give bare numbers.

For each entry beneath this line, provide reported [2(1)/2(2)].
1. CCCNc1cccc(-c2ccc3c(c2)[C@H](Nc2ccc(C(=O)OC)cc2)C[C@H](C)N3C(C)=O)c1
2. CCCCNc1cccc(-c2ccc3c(c2)[C@H](Nc2ccc(C(=O)OC)cc2)C[C@H](C)N3C(C)=O)c1
3. COC(=O)c1ccc(N[C@@H]2C[C@H](C)N(C(C)=O)c3ccc(-c4cccc(NCCC(F)(F)F)c4)cc32)cc1
4. CCCCCNc1cccc(-c2ccc3c(c2)[C@H](Nc2ccc(C(=O)OC)cc2)C[C@H](C)N3C(C)=O)c1
5. COC(=O)c1ccc(N[C@@H]2C[C@H](C)N(C(C)=O)c3ccc(-c4cccc(NC(C)=O)c4)cc32)cc1
6. COC(=O)c1ccc(N[C@@H]2C[C@H](C)N(C(C)=O)c3ccc(-c4cccc(NCc5ccoc5)c4)cc32)cc1

Outgoing:
1. 7.6
2. 16.25
3. 7.2
4. 22.5
5. 14.2
6. 10

* * *

# target system: BRD2(2) (Homo sapiens (Human))
# Sequence (P25440 344-453): as above
# assay info: BROMOscan KD determination
# recorded conditions: BROMOscan, Table 10
metric: Kd (nM)
Numbers only, in nM.

Sample records with Kd:
CC(=O)Nc1cccc(-c2ccc3c(c2)[C@H](Nc2ccccc2C(F)(F)F)C[C@H](C)N3C(C)=O)c1 :: 16
CC(=O)N1c2ccc(-c3ccc(C(=O)O)cc3)cc2[C@H](Nc2ccc(Cl)cc2)C[C@@H]1C [GSK-726, IBET-726, reference compound] :: 0.2
CC(=O)N1c2ccc(-c3cccc(-n4cccn4)c3)cc2[C@H](Nc2ccc(Cl)cc2)C[C@@H]1C :: 16
CC(=O)Nc1cccc(-c2ccc3c(c2)[C@H](Nc2ccccc2OC(F)(F)F)C[C@H](C)N3C(C)=O)c1 :: 3.5

For each entry beneath this line, provide reported Kd.
1. CC(=O)Nc1cccc(-c2ccc3c(c2)[C@H](Nc2ccc4ncccc4c2)C[C@H](C)N3C(C)=O)c1
2. COC(=O)c1ccc(N[C@@H]2C[C@H](C)N(C(C)=O)c3ccc(-c4cccc(NCCC(F)(F)F)c4)cc32)cc1
3. COC(=O)c1ccc(N[C@@H]2C[C@H](C)N(C(C)=O)c3ccc(-c4ccnn4C)cc32)cc1
4. COC(=O)c1ccc(N[C@@H]2C[C@H](C)N(C(C)=O)c3ccc(-c4cccc(NC(C)=O)c4)cc32)cc1
5. CCCOc1cccc(-c2ccc3c(c2)[C@H](Nc2ccc(C(=O)OC)cc2)C[C@H](C)N3C(C)=O)c1

Outgoing:
1. 2
2. 5
3. 1.7
4. 0.65
5. 8.2
